Can you tell me Kb for the items I'm about to list?
- SYSTEM_UNDER_TEST: bovine serum albumin (BSA) (Bos taurus)
- Construct: gene ALB; native serum protein, BSA powder dissolved in buffer; mature form expected
- EXPERIMENT_SUMMARY: tryptophan fluorescence quenching, double-log plot
- Type: binding
- STATED_CONDITIONS: 25 mM Tris-HCl pH 7.4, 298.15 K, BSA 10 μM, surfactant 0-700 μM
Numbers only, in M⁻¹.

Previously resolved entries follow.
{"columns": ["MOLECULE", "READOUT_UNIT", "NUMERIC_RESULT"],
 "data": [
  ["COCCOCCOCCOCc1cn(CCCn2cc[n+](CCC[n+]3ccn(CCCn4cc(COCCOCCOCCOC)nn4)c3)c2)nn1 [14d]", "M⁻¹", 34800],
  ["CCCCCCCCCCCCCCn1cc[n+](CCC[n+]2ccn(CCOCCn3cc(COCCOCCOCCOC)nn3)c2)c1 [15c]", "M⁻¹", 10900],
  ["CCCCCCCCn1cc[n+](CCC[n+]2ccn(CCOCCn3cc(COCCOCCOCCOC)nn3)c2)c1 [15b]", "M⁻¹", 10400]
]}

Kindly consider the entry below.
Q: Recorded Kb of COCCOCCOCCOCc1cn(CCOCCn2cc[n+](CCC[n+]3ccn(CCOCCn4cc(COCCOCCOCCOC)nn4)c3)c2)nn1 [15d] , please.
Result: 10000

====

- SYSTEM_UNDER_TEST: bovine serum albumin (BSA) (Bos taurus, UniProt P02769)
- Construct: gene ALB; native serum protein, BSA powder dissolved in buffer; mature form expected
- Sequence (P02769 25-607): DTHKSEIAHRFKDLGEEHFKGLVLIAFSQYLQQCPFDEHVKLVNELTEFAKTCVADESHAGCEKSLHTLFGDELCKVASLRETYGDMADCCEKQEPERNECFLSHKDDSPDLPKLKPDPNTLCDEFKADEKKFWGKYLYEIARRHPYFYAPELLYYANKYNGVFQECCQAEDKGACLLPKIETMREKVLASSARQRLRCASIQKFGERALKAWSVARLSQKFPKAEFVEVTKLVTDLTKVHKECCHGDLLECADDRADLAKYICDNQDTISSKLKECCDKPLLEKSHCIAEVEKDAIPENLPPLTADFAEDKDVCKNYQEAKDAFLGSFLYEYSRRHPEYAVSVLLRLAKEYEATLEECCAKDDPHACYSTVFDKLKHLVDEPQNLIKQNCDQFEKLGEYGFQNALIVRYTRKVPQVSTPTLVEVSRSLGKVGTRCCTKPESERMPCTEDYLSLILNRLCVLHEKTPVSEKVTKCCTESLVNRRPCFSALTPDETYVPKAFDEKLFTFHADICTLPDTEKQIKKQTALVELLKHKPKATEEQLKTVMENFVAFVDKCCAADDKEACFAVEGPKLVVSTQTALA
- EXPERIMENT_SUMMARY: tryptophan fluorescence quenching, double-log plot
- Format: binding
- STATED_CONDITIONS: 25 mM Tris-HCl pH 7.4, 298.15 K, BSA 10 μM, surfactant 0-700 μM
ENDPOINT_LABEL: Kb (M⁻¹)
One number for each entry, in M⁻¹.

{"columns": ["COMPOUND", "Kb (M⁻¹)"],
 "data": [
  ["CCCCCCCCn1cc[n+](CCCn2cc[n+](CCCn3cc(COCCOCCOCCOC)nn3)c2)c1 [14b]", 20700],
  ["CCCCn1cc[n+](CCC[n+]2ccn(CCOCCn3cc(COCCOCCOCCOC)nn3)c2)c1 [15a]", 790]
]}

Items follow; give Kb for each.
1. CCCCn1cc[n+](CCCn2cc[n+](CCCn3cc(COCCOCCOCCOC)nn3)c2)c1 [14a]
2. CCCCCCCCCCCCCCn1cc[n+](CCC[n+]2ccn(CCCn3cc(COCCOCCOCCOC)nn3)c2)c1 [14c]

Result:
1: 730; 2: 44900
